Test: Selectivity index, ratio of cytotoxicity against human HepG2 cells to IC50 for Plasmodium falciparum D10
Format: toxicity, cell-based
Settings: read-out: Selectivity Index

itemSmiles	selectivity ratio
CC(C)c1cc2c(cc1O)[C@@]1(C)CCCC(C)(C)[C@@H]1CC2	> 65
